FYI, the data here is from patent US20150307520A1.

biological target: p110δ/p85α (Homo sapiens); test: Transcreener KINASE Assay, kinase inhibition of p110δ/p85α; type: biochemical; conditions: 1 uM test compound
Sequence (O00329 whole entry): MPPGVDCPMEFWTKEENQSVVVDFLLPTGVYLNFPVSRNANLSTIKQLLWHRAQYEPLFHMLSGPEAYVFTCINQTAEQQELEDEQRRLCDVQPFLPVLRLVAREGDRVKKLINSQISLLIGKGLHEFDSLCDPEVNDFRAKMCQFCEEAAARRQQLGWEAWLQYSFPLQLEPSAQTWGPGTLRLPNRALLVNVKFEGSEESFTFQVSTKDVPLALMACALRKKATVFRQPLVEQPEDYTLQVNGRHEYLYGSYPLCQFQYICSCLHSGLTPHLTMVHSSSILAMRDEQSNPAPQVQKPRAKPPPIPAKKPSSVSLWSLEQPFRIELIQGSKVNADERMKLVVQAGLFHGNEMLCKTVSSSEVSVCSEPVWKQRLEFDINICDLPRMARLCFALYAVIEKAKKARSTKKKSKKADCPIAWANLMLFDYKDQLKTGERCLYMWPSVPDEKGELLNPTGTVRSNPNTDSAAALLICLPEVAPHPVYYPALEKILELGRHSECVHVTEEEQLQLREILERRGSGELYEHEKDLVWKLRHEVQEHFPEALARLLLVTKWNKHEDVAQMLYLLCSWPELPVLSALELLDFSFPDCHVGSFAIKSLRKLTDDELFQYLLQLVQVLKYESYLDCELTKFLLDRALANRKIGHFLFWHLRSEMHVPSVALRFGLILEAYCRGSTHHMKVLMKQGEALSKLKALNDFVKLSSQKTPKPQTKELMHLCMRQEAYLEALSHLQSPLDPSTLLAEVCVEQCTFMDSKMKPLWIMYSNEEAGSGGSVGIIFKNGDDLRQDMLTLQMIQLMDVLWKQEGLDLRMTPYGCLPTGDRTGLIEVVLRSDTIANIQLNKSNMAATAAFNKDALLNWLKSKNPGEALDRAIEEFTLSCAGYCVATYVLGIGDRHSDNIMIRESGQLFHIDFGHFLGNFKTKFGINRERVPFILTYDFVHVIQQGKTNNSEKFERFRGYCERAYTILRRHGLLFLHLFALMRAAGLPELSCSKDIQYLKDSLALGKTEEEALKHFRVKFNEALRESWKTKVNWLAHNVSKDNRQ
Sequence (P27986 whole entry partner): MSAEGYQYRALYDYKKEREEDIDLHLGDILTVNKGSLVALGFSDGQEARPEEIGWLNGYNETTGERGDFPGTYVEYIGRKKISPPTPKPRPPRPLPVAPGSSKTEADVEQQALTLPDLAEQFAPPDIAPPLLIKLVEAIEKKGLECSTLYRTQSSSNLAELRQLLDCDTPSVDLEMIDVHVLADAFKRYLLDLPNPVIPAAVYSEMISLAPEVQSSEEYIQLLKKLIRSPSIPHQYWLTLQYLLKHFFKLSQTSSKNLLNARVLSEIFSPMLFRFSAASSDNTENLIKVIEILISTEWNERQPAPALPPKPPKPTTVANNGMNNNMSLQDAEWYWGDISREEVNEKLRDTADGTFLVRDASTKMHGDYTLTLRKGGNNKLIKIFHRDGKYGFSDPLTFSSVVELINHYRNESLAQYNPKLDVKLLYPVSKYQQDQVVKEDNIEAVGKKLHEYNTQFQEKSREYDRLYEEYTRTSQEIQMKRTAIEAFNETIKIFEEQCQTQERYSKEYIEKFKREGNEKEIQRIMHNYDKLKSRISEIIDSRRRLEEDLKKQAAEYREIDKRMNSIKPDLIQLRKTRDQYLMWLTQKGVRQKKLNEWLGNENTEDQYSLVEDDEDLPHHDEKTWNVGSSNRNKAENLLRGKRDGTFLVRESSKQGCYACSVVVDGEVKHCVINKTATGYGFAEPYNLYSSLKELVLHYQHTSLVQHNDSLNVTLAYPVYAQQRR
Property name: PI3Kδ IH % @ 1 uM

CC(Nc1ncnc(N)c1C#N)c1cn2ccc(Cl)c2c(=O)n1-c1ccccc1 (stereo not drawn) [Compound 89] = >100%
CC(Nc1ncnc2[nH]cc(C#N)c12)c1cc2ncc(Cl)n2c(=O)n1-c1ccccc1 (stereo not drawn) [Compound 116] = >100%

Now, please, on to the next compound.
Field PI3Kδ IH % @ 1 uM (entry CC(Nc1nc(N)nc2c1C(=O)CCN2)c1cn2ccc(Cl)c2c(=O)n1-c1ccccc1 (stereo not drawn) [Compound 275] ) reads >100%
